- assay_system: Cytochrome P450 1A2 (Homo sapiens) (UniProt P05177)
- Sequence (P05177 whole entry, looked up): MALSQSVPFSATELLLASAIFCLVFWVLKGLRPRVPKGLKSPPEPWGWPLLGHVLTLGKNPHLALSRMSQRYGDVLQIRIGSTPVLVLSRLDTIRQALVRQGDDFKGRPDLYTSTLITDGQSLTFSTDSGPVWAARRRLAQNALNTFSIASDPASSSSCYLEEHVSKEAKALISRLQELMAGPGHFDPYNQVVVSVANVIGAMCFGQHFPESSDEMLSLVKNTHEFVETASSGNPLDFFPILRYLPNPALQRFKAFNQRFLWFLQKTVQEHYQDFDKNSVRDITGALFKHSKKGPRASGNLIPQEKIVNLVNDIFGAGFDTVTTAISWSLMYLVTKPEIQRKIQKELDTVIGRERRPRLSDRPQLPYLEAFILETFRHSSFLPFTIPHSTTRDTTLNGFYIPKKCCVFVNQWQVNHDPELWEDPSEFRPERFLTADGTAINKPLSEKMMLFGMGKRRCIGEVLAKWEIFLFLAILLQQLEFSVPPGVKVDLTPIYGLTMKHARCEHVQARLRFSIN
- procedure_text: Cytochrome panel assay with activity outcomes
- study_conditions: recombinant CYP, pro-luciferin dealkylation, luminescence, p450-cyp1a2; series mostly up to 57.1 µM
In all, about 16,000 compounds went through this assay and about 5,700 (36%) were called active. About 24% were inconclusive and are not listed. This is one part of the list. Peptide text beside a SMILES is read from it. * marks the point of attachment. PhAc = O=C(Cc1ccccc1)*; OBn = c1ccc(CO*)cc1
assay_metric: AC50

In [3]: df
Out[3]:
                                   compound     value_reported
0  COc1ccc(C[C@H](N)C(=O)N[C@@H]2[C@H](O)[C@H](n3cnc4c(N(C)C)ncnc43)O[C@@H]2CO)cc1           inactive
1  COc1ccc2[nH]cc(CCNc3ccnc(-c4ccoc4)n3)c2c1  0.501 µM (active)
2  O=C(CNC(=O)Cc1ccccc1)NCC(=O)OCc1ccccc1 (PhAc-Gly-Gly-OBn)           inactive
3  COc1ccc(N2CC(C(=O)Nc3cc(C)on3)CC2=O)cc1 (stereo not given)           inactive
4                              Cc1ccnc(N)c1           inactive
5  O=C(OC(C(=O)O)C(OC(=O)c1ccccc1)C(=O)NCc1ccccc1)c1ccccc1 (stereo not given)           inactive
6              CCN1CNC(=S)N(c2cc(C)ccc2C)C1           inactive
7  COc1ccc(N2CCN(C(=N)/C(C(C)=O)=C(\C)O)CC2)cc1           inactive

Exam item: # get_value(readout='AC50', item= O=C1C(Cl)=C(Sc2nnc3c4ccccc4c4ccccc4c3n2)C(=O)c2ccccc21 )
Marked response: 0.398 µM (active)

Exam item: # get_value(readout='AC50', item= COCCCNC(=O)/C=C/c1cccc(Cl)c1 )
Marked response: 6.31 µM (active)

Exam item: # get_value(readout='AC50', item= O=c1c(-c2cccc(Cl)c2)nc2cncnc2n1Cc1ccccc1Cl )
Marked response: 2 µM (active)

Exam item: # get_value(readout='AC50', item= O=C1/C(=C\c2ccccn2)SC(=S)N1Nc1ncc(C(F)(F)F)cc1Cl )
Marked response: 8.91 µM (active)

Exam item: # get_value(readout='AC50', item= O=C(/C=C/c1cccc([N+](=O)[O-])c1)NCCN1CCOCC1 )
Marked response: inactive

Exam item: # get_value(readout='AC50', item= CC(=O)NS(=O)(=O)c1ccc(N)cc1 )
Marked response: inactive

Exam item: # get_value(readout='AC50', item= CSc1ccc(NC(=O)Nc2cc(C)ccn2)cc1 )
Marked response: 0.501 µM (active)

Exam item: # get_value(readout='AC50', item= CN(C)C(=O)c1ccc(-c2nccc(NCc3cccnc3)n2)cc1 )
Marked response: 15.8 µM (active)

----------
- assay_system: Cytochrome P450 1A2 (Homo sapiens) (UniProt P05177)
- procedure_text: Cytochrome panel assay with activity outcomes
- study_conditions: recombinant CYP, pro-luciferin dealkylation, luminescence, p450-cyp1a2; series mostly up to 57.1 µM
The campaign covered roughly 16,000 compounds. About 5,700 (36%) were called active. Roughly 24% stayed inconclusive and do not appear here. This is one part of the list.
assay_metric: AC50

Before answering, review these 5 worked examples.
In [3]: df
Out[3]:
                               query_smiles    value_reported
0  Cc1nn(-c2ccc(F)cc2)c(C)c1NS(=O)(=O)c1ccc2ccccc2c1  15.8 µM (active)
1  Cc1ccc(CS(=O)(=O)CCC(=O)NCCCN2CCCC2=O)cc1          inactive
2  Cc1nn(-c2ccc(F)cc2)c(Cl)c1/C=C(\CCC(=O)O)c1nc2ccccc2s1          inactive
3  Cn1c(=N)c(S(=O)(=O)c2ccc(F)cc2)cc2c(=O)n3ccccc3nc21  12.6 µM (active)
4  Cc1ccc(S(=O)(=O)N(CCCN2CCCC2=O)Cc2cc3c(C)ccc(C)c3[nH]c2=O)cc1          inactive

Exam item: # get_value(readout='AC50', item= COc1ccc(/C=N/NC(=O)c2cc(-c3ccc(C)cc3C)nc3ccccc23)cc1COC(C)=O )
Marked response: inactive

Exam item: # get_value(readout='AC50', item= N[C@H](C(=O)O)c1ccc(C(=O)O)cc1 )
Marked response: inactive

Exam item: # get_value(readout='AC50', item= COc1ccc(/C=N/NC(N)=S)cc1OC(=O)c1cccc2ccccc12 )
Marked response: 1.58 µM (active)

Exam item: # get_value(readout='AC50', item= CCOCCCn1cnc2c(c1=O)c1nc3ccccc3nc1n2-c1ccccc1 )
Marked response: 4.47 µM (active)

Exam item: # get_value(readout='AC50', item= CCn1c(=N)c(S(=O)(=O)c2ccc(F)cc2)cc2c(=O)n3ccccc3nc21 )
Marked response: 1.58 µM (active)

----------
Listed below: activity, negative = inhibition values for each entry.
- assay_system: Cytochrome P450 1A2 (Homo sapiens) (UniProt P05177)
- procedure_text: Cytochrome panel assay with activity outcomes; for activity, negative = inhibition: % is set by controls: 0 for no effect and ±100 for the full control effect
- study_conditions: recombinant CYP, pro-luciferin dealkylation, luminescence, p450-cyp1a2; series mostly up to 57.1 µM
Screen size: about 16,000 compounds; about 5,700 (36%) were called active. Inconclusive results (about 24%) are left out. The list shows a part of the results.

Before answering, review these 2 worked examples.
>>> df
                                   compound                  value_reported
0  O=C1CCCC=C1[C@H](CCc1ccccc1)OC(=O)c1ccc(Br)cc1  -1.62% [at 11.4 µM] (inactive)
1  CO[C@H]1COC(=O)[C@@H](C)COC(=O)[C@@H](Cc2ccccc2)NC(=O)C/C=C\[C@H]1C   4.52% [at 11.4 µM] (inactive)

Exam item: # returns recorded activity, negative = inhibition (system: Cytochrome P450 1A2 (Homo sapiens) (UniProt P05177)) for Oc1cccnc1CN1CCCCC1
Marked response: -14.4% [at 11.4 µM] (inactive)

Exam item: # returns recorded activity, negative = inhibition (system: Cytochrome P450 1A2 (Homo sapiens) (UniProt P05177)) for C[C@]12CC[C@H]3c4ccc(O)cc4CC[C@@H]3[C@H]1CC[C@@H]2OC(=O)CCC1CCCC1
Marked response: -12.2% [at 11.4 µM] (inactive)

Exam item: # returns recorded activity, negative = inhibition (system: Cytochrome P450 1A2 (Homo sapiens) (UniProt P05177)) for O=C(O)c1cccc(C(=O)O)c1S(=O)Cc1ccccc1 (stereo unspecified)
Marked response: -2.43% [at 11.4 µM] (inactive)

Exam item: # returns recorded activity, negative = inhibition (system: Cytochrome P450 1A2 (Homo sapiens) (UniProt P05177)) for CN(C)Cc1ccc(O)c(CN(C)C)n1
Marked response: -8.37% [at 11.4 µM] (inactive)

----------
- assay_system: Cytochrome P450 1A2 (Homo sapiens) (UniProt P05177)
- procedure_text: Cytochrome panel assay with activity outcomes; for activity, negative = inhibition: % is set by controls: 0 for no effect and ±100 for the full control effect
- study_conditions: recombinant CYP, pro-luciferin dealkylation, luminescence, p450-cyp1a2; series mostly up to 57.1 µM
The campaign covered roughly 16,000 compounds. About 5,700 (36%) were called active. Inconclusive results (about 24%) are left out. The list shows a part of the results.
assay_metric: activity, negative = inhibition

>>> print(df.to_string())
                               query_smiles                     assay_metric                  value_reported
0  O=C(CCN1CCCCC1)N1CCc2c([nH]c3ccccc23)[C@H]1c1cccnc1  activity, negative = inhibition  -19.7% [at 2.29 µM] (inactive)
1  Cc1ccc(S(=O)(=O)N[C@H]2COC(=O)[C@H](C)COC(=O)[C@H](C)NC(=O)C/C=C\[C@H]2C)cc1  activity, negative = inhibition   4.67% [at 11.4 µM] (inactive)
2  COc1ccc(COC(=O)N/N=C2/C[C@@H](O)[C@@H](O)[C@@H]3[C@H]4C(=O)N(c5ccc(F)cc5F)C(=O)[C@@H]4CC[C@H]23)cc1  activity, negative = inhibition  -6.28% [at 11.4 µM] (inactive)
3             O=c1ccnc(SCc2ccc(Cl)cc2)[nH]1  activity, negative = inhibition  -17.6% [at 11.4 µM] (inactive)
4   O=c1[nH]c(=S)[nH]c2c1CN(CCCN1CCOCC1)CN2  activity, negative = inhibition  -13.5% [at 2.29 µM] (inactive)

Exam item: # get_value(readout='activity, negative = inhibition', item= COc1cccc([C@@H]2Oc3ccc(OC)cc3C(=O)[C@H]2O)c1 )
Marked response: 2.62% [at 11.4 µM] (inactive)

Exam item: # get_value(readout='activity, negative = inhibition', item= COC(=O)[C@]1(C)CCC(c2ccc(C)cc2)=C(CC(=O)O)C1 )
Marked response: -8.38% [at 2.29 µM] (inactive)

Exam item: # get_value(readout='activity, negative = inhibition', item= Nc1[nH]c(=O)nc2c1ncn2[C@H]1O[C@@H](CO)[C@@H](O)[C@@H]1O )
Marked response: -0.635% [at 11.4 µM] (inactive)

Exam item: # get_value(readout='activity, negative = inhibition', item= CCCNC(=O)OC[C@@H]1O[C@H](CCO/N=C(\C)CCC(=O)OC[C@@H]2O[C@H](c3ccccc3)C=C[C@@H]2Oc2ccc(OC)cc2)C=C[C@@H]1Oc1ccc(OC)cc1 )
Marked response: -2.5% [at 11.4 µM] (inactive)
